compounds and their reported EC50
# Tested on: JEV
# Method Summary: microbe, parasite or virus in culture
# Format: cell-based
# Experimental Parameters: Japanese encephalitis virus, 72 h; BHK-21 cells, three days, MTT
Endpoint Label: EC50

                                   compound  endpoint_result
0  Nc1ncnc2c1c(/C=N\O)cn2[C@@H]1O[C@H](CO)[C@@H](O)[C@H]1O        < 0.13 µM
1  Nc1ncnc2c1ccn2[C@@H]1O[C@H](CO)[C@@H](O)[C@H]1O        < 0.13 µM
2  Nc1c2ccn([C@@H]3O[C@H](CO)[C@@H](O)[C@H]3O)c2nc[n+]1[O-] [HUP1077, tubercidin N-oxide]           6.9 µM

###

Observed HCoV-229E SI (CC50/EC50) values for HCoV-229E are listed in what follows.
Endpoint Label: HCoV-229E SI (CC50/EC50)

Molecule	Measured On	Endpoint Result
CCC(CC)COC(=O)[C@H](C)N[P@](=O)(OC[C@H]1O[C@@](C#N)(c2ccc3c(N)ncnn23)[C@H](O)[C@@H]1O)Oc1ccccc1 [GS-5734, remdesivir, reference compound]	HCoV-229E	>694.1
N#Cc1cn([C@@H]2O[C@H](CO)[C@@H](O)[C@H]2O)c2ncnc(N)c12 [HUP1109, 5-cyanotubercidin]	HCoV-229E	0.26
Nc1ncnc2c1ccn2[C@@H]1O[C@H](CO)[C@@H](O)[C@H]1O [HUP1136, tubercidin]	HCoV-229E	>8.5
Nc1ncnc2c1c(/C=N\O)cn2[C@@H]1O[C@H](CO)[C@@H](O)[C@H]1O [HUP1069, 5-formyltubercidin oxime]	HCoV-229E	>9.5
